In what follows, each item is paired with its IC50 for human renal renin (Homo sapiens, UniProt P00797).

Compound | IC50 / nM
CCC(C)CNC(=O)CC(O)C(CC1CCCCC1)NC(=O)C(CSC)NC(=O)C(Cc1ccccc1)NC(=O)N1C[C@@H](O)[C@@H](O)C1 (stereo partly shown) | 0.56
CCC(C)CNC(=O)CC(O)C(CC1OCCO1)NC(=O)C(CSC)NC(=O)C(Cc1ccccc1)NC(=O)OC(C)(C)C (stereo not shown) | 600
CCC(C)CNC(=O)C(OC)C(O)C(CC1CCCCC1)NC(=O)C(CSC)NC(=O)C(Cc1ccccc1)NC(=O)OC(C)(C)C (stereo not shown) | 0.7
C=CCC(C(=O)NCC(C)CC)C(O)C(CC1CCCCC1)NC(=O)C(C)NC(=O)C(Cc1ccccc1)NC(=O)OC(C)(C)C (stereo not shown) | 1.5
